target: UniProtKB P28845; assay: biochemical; settings: read-out: % Inh @ 0.1 mM
metric-name: inhibition (%)
# unit: % | format: bare number

molecule: CCc1cccc(NS(=O)(=O)N2CCC(c3cccc(C(=O)N(CC)CC)c3)CC2)n1
metric-name: inhibition
numeric-readout: 51.1

Data request: What value of inhibition has been reported for the following molecule? `CCc1cccc(NS(=O)(=O)N2CCCCCC2)n1`
Data returned: 79.5

Data request: Then this molecule: `CCc1cccc(NS(=O)(=O)N2CCC(c3ccnc(N(C)C)n3)CC2)n1`
Data returned: 86.8

Data request: Next entry: `Cc1cccc(N2CCN(S(=O)(=O)Nc3ccc4ccccc4n3)CC2)n1`
Data returned: 91.9

Data request: Entry to check: Cc1ccc(C2(C)CN(S(=O)(=O)Nc3cccc(C)n3)CCO2)cc1 (stereo not drawn)
Data returned: 85.3

Data request: Moving on to the next molecule: `CCc1cccc(NS(=O)(=O)N2CCC(C(F)(F)F)CC2)n1`
Data returned: 100

Data request: Queued: `O=S(=O)(Nc1ccc2ccccc2n1)N1CCN(c2ncccn2)CC1`
Data returned: 100

Data request: Follow-up item: `CCc1cccc(NS(=O)(=O)N2CCC(c3ccccc3)CC2)n1`
Data returned: 100

Data request: Would you kindly repeat that for `CCc1cccc(NS(=O)(=O)N2CCC(COCc3ccccc3F)CC2)n1` ?
Data returned: 67.5

###

target: 11β-hsd-1 enzyme (Homo sapiens, UniProt P28845); experiment: biochemical; settings: read-out: % Inh @ 0.1 mM
Sequence (P28845 whole entry, species assumed): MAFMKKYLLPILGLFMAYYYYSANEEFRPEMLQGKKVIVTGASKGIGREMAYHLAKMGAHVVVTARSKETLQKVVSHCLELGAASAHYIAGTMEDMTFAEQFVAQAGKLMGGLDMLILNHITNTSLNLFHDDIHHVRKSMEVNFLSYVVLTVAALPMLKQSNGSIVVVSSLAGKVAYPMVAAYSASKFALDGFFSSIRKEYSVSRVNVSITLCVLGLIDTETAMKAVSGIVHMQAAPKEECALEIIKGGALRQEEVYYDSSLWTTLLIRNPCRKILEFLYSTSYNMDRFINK
Each item that follows carries a reported inhibition.
A number alone suffices; assume %.

molecule: Cc1cccc(NS(=O)(=O)N2CCCN(c3ncccn3)CC2)n1
numeric-readout: 71
//
molecule: Cc1cccc(NS(=O)(=O)N2CCCC(c3ccccc3)CC2)n1 (stereo not drawn)
numeric-readout: 100
//
molecule: CCc1cccc(NS(=O)(=O)N2CCC(c3ccc(C(=O)N4CCOCC4)cc3)CC2)n1
numeric-readout: 48.4
//
molecule: Cc1cc(CC(C)C)nc(N2CCN(S(=O)(=O)Nc3ccc4ccccc4n3)CC2)n1
numeric-readout: 50
//
molecule: COc1ccc2oc(N3CCN(S(=O)(=O)Nc4ccc5ccccc5n4)CC3)nc2c1
numeric-readout: 100

Data request: Record `CCc1cccc(NS(=O)(=O)N2CCC(c3ccccc3OC)CC2)n1` : what is its inhibition with 11β-hsd-1 enzyme (Homo sapiens, UniProt P28845)?
Data returned: 93.1

###

target: 11β-hsd-1 enzyme (Homo sapiens, UniProt P28845); assay: biochemical; details: read-out: % Inh @ 0.1 mM
Recorded inhibition, one value per entry.
Give the quantity in %, number only.

Example results:
molecule: CCCC1CCCCN1S(=O)(=O)Nc1cccc(CC)n1 (stereo not drawn) [Example 103]
inhibition, %: 82.2

molecule: O=C(OCc1ccccc1)N1CCCN(S(=O)(=O)Nc2ccc3ccccc3n2)CC1 [Example 164]
inhibition, %: 81.4

Let us examine a further case.
Data request: Query (molecule): CCc1cccc(NS(=O)(=O)N2CCCC(F)(F)C2)n1 [Example 101] ; field requested: inhibition
Data returned: 78.3

###

Target: 11β-hsd-1 enzyme (Homo sapiens, UniProt P28845)
Assay: biochemical
Conditions: read-out: % Inh @ 0.1 mM
Method: Percentage of inhibition was determined in a 100 mM Triethanolamine buffer, pH 8.0, 200 mM NaCl, 0.02% n-dodecyl β-D-maltoside and 5 mM β-ME. […] Percent Inhibition was calculated based on the following equation: (1-(3H-Cortisol peak area in the […] of inhibitor)×100).
Entries and their inhibition
// units = %; emit number, no label

A selection of reference data follows.
molecule: O=S(=O)(Nc1ccc2ccccc2n1)N1CCN(c2nc3ncccc3o2)CC1 [Example 176]
numeric-readout: 70.4
--
molecule: CCc1cccc(NS(=O)(=O)N2CCN(c3nc4nc(C)ccc4o3)CC2)n1 [Example 149]
numeric-readout: 78.2

Data request: Value lookup for inhibition; key = CCc1cccc(NS(=O)(=O)N2CCc3nc(-c4ccccc4)nc(C(=O)NC)c3C2)n1 [Example 148]
Data returned: 83.9

Data request: Here is the next molecule: COc1ccc(-c2cnc(N3CCN(S(=O)(=O)Nc4cccc(C)n4)CC3)nc2)cc1 [Example 151]
Data returned: 100

Data request: Then what about the molecule CCc1cccc(NS(=O)(=O)N2CCC(CCc3ccnc(NCC4CC4)n3)CC2)n1 [Example 82] ?
Data returned: 100

Data request: Would you kindly repeat that for COc1cccc(N2CCN(S(=O)(=O)Nc3ccc4ccccc4n3)CC2)n1 [Example 165] ?
Data returned: 100

Data request: Record: CCc1cccc(NS(=O)(=O)N2CCCN(c3ncccc3C#N)CC2)n1 [Example 187]
Data returned: 68.8

Data request: What do you get for CCc1cccc(NS(=O)(=O)N2CCC(Oc3ccc(C#N)cc3OC)CC2)n1 [Example 110] ?
Data returned: 8

Data request: Also O=S(=O)(Nc1ccc2ccccc2n1)N1CCOC(COc2cc(F)cc(F)c2)C1 (stereo not drawn) [Example 100] , if possible.
Data returned: 90.6

Data request: Also CCc1cccc(NS(=O)(=O)N2CCCC(c3ccccc3)CC2)n1 (stereo not drawn) [Example 90] ?
Data returned: 90.9

Data request: Another molecule to check: CCc1cccc(NS(=O)(=O)N2CCN(C)CC(COCc3c(F)cccc3F)C2)n1 (stereo not drawn) [Example 142]
Data returned: 5.9

###

target: 11β-hsd-1 enzyme (Homo sapiens); assay: biochemical; settings: read-out: % Inh @ 0.1 mM
Readings of inhibition for the listed molecules
I only need the number, in %, no unit after it.

Example entries begin here.
molecule: CCc1cccc(NS(=O)(=O)N2CCN(Cc3c(F)cccc3F)CC(COC)C2)n1 (stereo not shown)
inhibition (%): 13.8
--
molecule: O=S(=O)(Nc1ccc2ccccc2n1)N1CCCN(c2ncccn2)CC1
inhibition (%): 10.5
--
molecule: N#Cc1cccnc1N1CCCN(S(=O)(=O)Nc2ccc3ccccc3n2)CC1
inhibition (%): 56.7

Data request: inhibition lookup needed for `CCc1cccc(NS(=O)(=O)N2CCCN(Cc3ccc(F)cc3)CC2)n1` , thanks.
Data returned: 96.8

Data request: Follow-up item: `CCc1cccc(NS(=O)(=O)N2CCC(CCc3ccccn3)CC2)n1`
Data returned: 93.8

Data request: And for O=S(=O)(Nc1ccc2ccccc2n1)N1CCCCCCC1 [Example 155, N-quinolin-2-ylazocane-1-sulfonamide] ?
Data returned: 90.6

Data request: Do the same for Cc1cccc(NS(=O)(=O)N2CCCC(COCC3CC3)CC2)n1 (stereo not shown) please
Data returned: 87.6

###

target: 11β-hsd-1 enzyme (Homo sapiens); assay: biochemical; details: read-out: % Inh @ 0.1 mM
metric-name: inhibition (%)
Give a bare numeral; the unit % is implied.

Examples from the recorded data:
molecule: O=S(=O)(Nc1ccc2ccccc2n1)N1CCCC(COCC2CC2)CC1 (stereo not drawn)
metric-name: inhibition
numeric-readout: 92.4
--
molecule: CCc1cccc(NS(=O)(=O)N2CCCC(COc3ccccc3F)C2)n1 (stereo not drawn)
metric-name: inhibition
numeric-readout: 97.4
--
molecule: Cc1ccc(C2(C)CN(S(=O)(=O)Nc3ccc4ccccc4n3)CCO2)cc1 (stereo not drawn)
metric-name: inhibition
numeric-readout: 85.2

Data request: I would be grateful if you could share the reported inhibition for `CCOCC1CCN(S(=O)(=O)Nc2cccc(CC)n2)CC1` .
Data returned: 58.7

Data request: # iterate: CCc1cccc(NS(=O)(=O)N2CC[C@@H]3CCCC[C@@H]3C2)n1 (racemic)
Data returned: 100

Data request: Try `CCc1cccc(NS(=O)(=O)N2CCC(CCc3ccccc3)CC2)n1` next.
Data returned: 100

Data request: // next record `CCc1cccc(NS(=O)(=O)N2CCC(n3c(C)nnc3CC)CC2)n1`
Data returned: 0

Data request: Moving on to the next molecule: `Cc1cccc(NS(=O)(=O)N2CCCN(C(=O)OCc3ccccc3)CC2)n1`
Data returned: 76.7

Data request: Item: `CCc1cccc(NS(=O)(=O)N2CCCN(c3ncccn3)CC2)n1`
Data returned: 60.2
